target: T1, rat NPRA (rat, UniProt P18910 29-1057)
T1 sequence (looked up): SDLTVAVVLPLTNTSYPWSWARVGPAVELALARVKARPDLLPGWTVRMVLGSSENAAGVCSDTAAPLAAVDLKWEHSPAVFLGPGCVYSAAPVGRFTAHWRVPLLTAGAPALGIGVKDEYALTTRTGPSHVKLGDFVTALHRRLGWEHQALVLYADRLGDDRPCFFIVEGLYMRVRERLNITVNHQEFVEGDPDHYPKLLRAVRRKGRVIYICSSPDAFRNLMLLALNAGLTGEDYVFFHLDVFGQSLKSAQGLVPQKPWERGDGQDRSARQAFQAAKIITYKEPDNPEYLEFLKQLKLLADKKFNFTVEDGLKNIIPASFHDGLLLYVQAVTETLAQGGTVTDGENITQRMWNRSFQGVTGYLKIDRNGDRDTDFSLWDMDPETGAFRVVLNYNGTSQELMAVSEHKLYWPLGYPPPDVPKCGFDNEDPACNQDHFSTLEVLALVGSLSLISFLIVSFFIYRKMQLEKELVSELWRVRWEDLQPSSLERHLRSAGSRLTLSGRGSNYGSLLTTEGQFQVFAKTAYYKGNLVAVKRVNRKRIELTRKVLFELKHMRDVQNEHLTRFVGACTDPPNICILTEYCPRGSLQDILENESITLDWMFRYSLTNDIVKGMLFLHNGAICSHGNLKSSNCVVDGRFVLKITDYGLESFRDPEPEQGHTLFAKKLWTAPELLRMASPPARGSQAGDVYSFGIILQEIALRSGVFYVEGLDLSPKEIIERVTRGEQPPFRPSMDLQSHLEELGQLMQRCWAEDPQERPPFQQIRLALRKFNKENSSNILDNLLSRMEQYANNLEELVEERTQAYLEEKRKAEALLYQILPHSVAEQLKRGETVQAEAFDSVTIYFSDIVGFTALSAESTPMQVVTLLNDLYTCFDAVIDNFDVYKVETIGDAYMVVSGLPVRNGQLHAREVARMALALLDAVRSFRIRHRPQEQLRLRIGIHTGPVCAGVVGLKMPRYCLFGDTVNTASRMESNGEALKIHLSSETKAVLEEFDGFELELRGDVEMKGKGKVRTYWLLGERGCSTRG
experiment.summary: cell-based or functional assay
Numbered stars: 1 amine (or outer) side, 2 acyl side, 3 side chain; on linkers, the order of the positions; unused ones are H or OH. Bridge positions count the residues as written; N and C are the ends. Square brackets hold non-standard residues; d marks the D form. * marks the point of attachment. thioacetal = thioacetal linkage between two cysteines (intrachain bond at the bracketed Cys); C20 diacid = O=C(O)CCCCCCCCCCCCCCCCCCC(=O)*; C16 diacid = O=C(O)CCCCCCCCCCCCCCC(=O)*; γGlu = O=C(O)[C@H](CCC(=O)[*:2])N[*:1]; 4Pal = N[C@@H](Cc1ccncc1)C(=O)O; βAla = NCCC(=O)O
Each entry below carries its recorded cGMP Assay (EC50, pM) w/BSA.
measured.property: cGMP Assay (EC50, pM) w/BSA

>>> assay_result("SXRRSSCFGKRIDRIGHQSGLGCPSFRHGGKSSGAPPPS (HOOC-(CH2)18-CO-(γGlu)-EKEKEKG-(AEEA)8-S-4Pal-RRSS[CFGKRIDRIGHQSGLGC]PSFRHGGKSSGAPPPS-NH2; thioacetal linkage between the bracketed Cys) [Example 87]")
463000
>>> assay_result("XEKEKEKGEKPRSSCFGKRIDRIGHYSGLGCPSFRHGSPSSGAPPPS (HOOC-(CH2)18-CO-(γGlu)-EKEKEKGEKPRSS[CFGKRIDRIGHYSGLGC]PSFRHGSPSSGAPPPS-NH2; thioacetal linkage between the bracketed Cys) [Example 5]")
276000
>>> assay_result("{C20 diacid}-[γGlu]EKEKEKGS[4Pal]RRSSCFGRKIDRIGHQSGLGCPSFRHGGKSSGAPPPS-NH2 (bridge 15-31 via thioacetal) [Example 80]")
364000
>>> assay_result("{C20 diacid}-[γGlu]EKEKEKGEK[βAla]RSSCFGGRIDRIGHYSGLGCPSFRHGGPSSGAPPPS-NH2 (bridge 15-31 via thioacetal) [Example 56]")
"1.38e+06"
>>> assay_result("{C20 diacid}-[γGlu]EKEKEKGEK[βAla]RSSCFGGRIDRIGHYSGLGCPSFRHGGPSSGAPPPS-NH2 (disulfide 15-31) [Example 54]")
77200
>>> assay_result("{C16 diacid}-[γGlu]EKEKEKGEK[βAla]RSSCFGGRIDRIGHYSGLGCPSFRHGGKSSGAPPPS-NH2 (bridge 15-31 via thioacetal) [Example 73]")
76400
>>> assay_result("{C20 diacid}-[γGlu]EKEKEKGS[4Pal]RRSSCFGGRIDRIGHQSGLGCPSFRHRITAREDKQGYA-NH2 (disulfide 15-31) [Example 25]")
57300
>>> assay_result("XEKEKEKGSXRRSSCFGGRIDRIGAQSGLGCNSFRY (HOOC-(CH2)18-CO-(γGlu)-EKEKEKGS-4Pal-RRSS[CFGGRIDRIGAQSGLGC]NSFRY-NH2; disulfide linkage between the bracketed Cys) [Example 11]")
24700
